For each of the compounds below, state its IC50.
# TARGET_OR_SYSTEM: h17β-HSD1 (Homo sapiens)
# Construct: h17β-HSD1 was obtained after precipitation with ammonium sulfate from the cytosolic fraction
# Sequence (P14061 whole entry): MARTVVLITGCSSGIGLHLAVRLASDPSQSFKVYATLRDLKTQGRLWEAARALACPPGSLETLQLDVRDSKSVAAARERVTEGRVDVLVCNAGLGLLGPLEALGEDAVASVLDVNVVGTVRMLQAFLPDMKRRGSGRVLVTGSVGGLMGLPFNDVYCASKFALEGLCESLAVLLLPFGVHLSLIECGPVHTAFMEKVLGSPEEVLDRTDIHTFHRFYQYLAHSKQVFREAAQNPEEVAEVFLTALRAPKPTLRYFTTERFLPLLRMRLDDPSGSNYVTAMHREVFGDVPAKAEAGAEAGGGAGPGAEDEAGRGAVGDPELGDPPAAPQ
# ASSAY_OVERVIEW: Inhibition of h17β-HSD1 in cell-free assay
# TEST_CONTEXT: human placental cytosolic fraction, substrate E1 [500 nM], cofactor NADH [500 μM]
Give the value in µM but do not write µM after it.

What measured IC50 goes with COc1cccc(-c2ccc(C(=O)N(C)c3cccc(OC)c3)cc2)c1 [Compound 7a] ?
6.4

What measured IC50 goes with COc1cccc(N(C)C(=O)c2ccc(-c3cccc(C)c3F)cc2)c1 [Compound 20a] ?
11.3

What measured IC50 goes with COc1ccc(-c2ccc(C(=O)N(C)c3cccc(OC)c3)cc2)cc1 [Compound 10a] ?
27

What measured IC50 goes with Cc1cccc(N(C)C(=O)c2ccc(-c3cccc(C)c3F)cc2)c1 [Compound 21a] ?
3.71

---

# ASSAY_OVERVIEW: Metabolic stability in a cell-free assay (liver S9 fraction)
# Format: in vitro ADME
# TEST_CONTEXT: pooled liver S9 fraction; human liver S9 fraction 1 mg/ml, NADPH regenerating system, UDPGA, PAPS, 37°C; inhibitor 1 μM; read-out: Inhibitor t1/2
QUANTITY: half-life at 1 μM (h)
Give the value in h but do not write h after it.

What measured half-life at 1 μM goes with COc1cccc(N(C)C(=O)c2ccc(-c3ccc(C)c(C)c3)cc2)c1 [Compound 17a] ?
1.78

What measured half-life at 1 μM goes with `Cc1cccc(-c2ccc(C(=O)N(C)Cc3cccc(O)c3)cc2)c1F` ?
0.1

What measured half-life at 1 μM goes with COc1cccc(CN(C)C(=O)c2ccc(-c3cccc(C)c3F)cc2)c1 [Compound 25a] ?
1.72

What measured half-life at 1 μM goes with `COc1cccc(N(C)C(=O)c2ccc(-c3cccc(C)c3)cc2)c1` ?
1.77

What measured half-life at 1 μM goes with COc1cccc(N(C)C(=O)c2ccc(-c3cccc(Cl)c3)cc2)c1 [Compound 14a] ?
1.37

What measured half-life at 1 μM goes with COc1cccc(N(C)C(=O)c2ccc(-c3cccc(C)c3F)cc2)c1 [Compound 20a] ?
1.73

What measured half-life at 1 μM goes with `COc1cccc(-c2ccc(C(=O)N(C)c3cccc(C)c3)cc2)c1` ?
1.93

---

# TARGET_OR_SYSTEM: m17β-HSD2 (Mus musculus)
# Construct: The microsomal fraction (m17β-HSD2) was obtained from mouse liver as described for h17β-HSD2; tissue Pharmacelsus GmbH (mouse livers); host or cells: mouse liver, microsomal fraction
# Sequence (P51658 1-381): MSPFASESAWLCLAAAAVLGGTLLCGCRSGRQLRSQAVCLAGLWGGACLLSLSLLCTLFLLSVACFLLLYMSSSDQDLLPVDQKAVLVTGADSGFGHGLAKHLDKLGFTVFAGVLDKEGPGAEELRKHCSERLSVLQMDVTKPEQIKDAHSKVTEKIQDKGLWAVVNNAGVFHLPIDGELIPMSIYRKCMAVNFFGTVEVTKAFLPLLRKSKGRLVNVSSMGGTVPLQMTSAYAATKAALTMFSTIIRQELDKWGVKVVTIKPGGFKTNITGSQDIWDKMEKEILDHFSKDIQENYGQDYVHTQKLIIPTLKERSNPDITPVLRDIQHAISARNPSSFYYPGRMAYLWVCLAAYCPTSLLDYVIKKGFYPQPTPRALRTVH
# ASSAY_OVERVIEW: Inhibition of m17β-HSD2 in cell-free assay
# Format: biochemical
# TEST_CONTEXT: 1 μM; mouse liver microsomal fraction, substrate E2 [500 nM], cofactor NAD+ [1500 μM]; Table 1
QUANTITY: % inh. at 1 μM m17β-HSD2 (%)
Give the value in % but do not write % after it.

What measured % inh. at 1 μM m17β-HSD2 goes with `CN(C(=O)c1ccc(-c2ccccc2O)s1)c1cccc(O)c1` ?
18

What measured % inh. at 1 μM m17β-HSD2 goes with `COc1cccc(N(C)C(=O)c2ccc(-c3ccccc3OC)s2)c1` ?
19

What measured % inh. at 1 μM m17β-HSD2 goes with `CN(Cc1cccc(O)c1)C(=O)c1cccc(-c2ccc(O)cc2)c1` ?
22

What measured % inh. at 1 μM m17β-HSD2 goes with `Cc1cccc(-c2ccc(C(=O)N(C)c3cccc(C)c3)s2)c1` ?
42

What measured % inh. at 1 μM m17β-HSD2 goes with `COc1cccc(N(C)C(=O)c2ccc(-c3cccc(N(C)C)c3)s2)c1` ?
40

What measured % inh. at 1 μM m17β-HSD2 goes with `CN(Cc1cccc(O)c1)C(=O)c1cccc(-c2cccc(O)c2)c1` ?
29

What measured % inh. at 1 μM m17β-HSD2 goes with `COc1cccc(N(C)C(=O)c2ccc(-c3cccc(OC)c3F)s2)c1` ?
26

What measured % inh. at 1 μM m17β-HSD2 goes with `COc1cccc(-c2cccc(C(=O)N(C)c3cccc(OC)c3)c2)c1` ?
25

What measured % inh. at 1 μM m17β-HSD2 goes with `COc1ccc(-c2cccc(C(=O)N(C)c3cccc(OC)c3)c2)cc1` ?
11

---

# TARGET_OR_SYSTEM: m17β-HSD2 (Mus musculus, UniProt P51658)
# Construct: The microsomal fraction (m17β-HSD2) was obtained from mouse liver as described for h17β-HSD2; tissue Pharmacelsus GmbH (mouse livers)
# ASSAY_OVERVIEW: Inhibition of m17β-HSD2 in cell-free assay
# Experimental: h17β-HSD2, h17β-HSD1, m17β-HSD2 and m17β-HSD1 cell-free assays were performed similarly, by incubating enzyme, tritiated substrate, cofactor and inhibitor, according to described procedures. The microsomal fraction (m17β-HSD2) was obtained from mouse liver as described for h17β-HSD2. Inhibitory activities were evaluated by a method identical to the one described for the human enzyme. Inhibitory activities were evaluated following an established method with minor modifications. […]
For each of the compounds below, state its IC50.
Give the value in µM but do not write µM after it.

What measured IC50 goes with COc1cccc(N(C)C(=O)c2ccc(-c3cccc(C)c3)cc2)c1 [Compound 6a] ?
0.26

What measured IC50 goes with Cc1cccc(-c2ccc(C(=O)N(C)Cc3cccc(O)c3)cc2)c1F [Compound 25] ?
0.19

What measured IC50 goes with COc1cccc(N(C)C(=O)c2ccc(-c3ccc(C)c(C)c3)cc2)c1 [Compound 17a] ?
0.14

What measured IC50 goes with COc1cccc(-c2ccc(C(=O)N(C)c3cccc(OC)c3)cc2)c1 [Compound 7a] ?
0.29

---

# TARGET_OR_SYSTEM: h17β-HSD2 (Homo sapiens, UniProt P37059)
# Sequence (P37059 whole entry): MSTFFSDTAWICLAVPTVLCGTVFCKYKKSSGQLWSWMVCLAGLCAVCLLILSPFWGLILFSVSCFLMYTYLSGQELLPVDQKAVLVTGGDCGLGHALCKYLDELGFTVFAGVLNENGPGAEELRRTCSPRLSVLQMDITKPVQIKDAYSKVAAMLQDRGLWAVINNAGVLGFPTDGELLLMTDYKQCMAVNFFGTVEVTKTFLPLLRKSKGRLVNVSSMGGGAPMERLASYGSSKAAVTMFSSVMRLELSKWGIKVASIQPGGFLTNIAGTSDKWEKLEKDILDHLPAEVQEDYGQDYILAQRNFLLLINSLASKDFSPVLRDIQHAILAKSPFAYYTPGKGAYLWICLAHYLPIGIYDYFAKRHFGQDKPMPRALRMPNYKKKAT
# ASSAY_OVERVIEW: Inhibition of h17β-HSD2 in cell-free assay
# Format: biochemical
# Parameters: from tissue; host or cells: human placenta, microsomal fraction
# TEST_CONTEXT: human enzymes, cell-free
QUANTITY: s.f. (selectivity factor) = IC50(17β-HSD1)/IC50(17β-HSD2)
Keep the answer to the number alone.

Field: s.f. (selectivity factor) = IC50(17β-HSD1)/IC50(17β-HSD2) (h17β-HSD2 (Homo sapiens, UniProt P37059)). Entry: COc1cccc(N(C)C(=O)c2ccc(-c3cccc(Cl)c3)cc2)c1 [Compound 14a]
13

Field: s.f. (selectivity factor) = IC50(17β-HSD1)/IC50(17β-HSD2) (h17β-HSD2 (Homo sapiens, UniProt P37059)). Entry: COc1cccc(CN(C)C(=O)c2ccc(-c3cccc(C)c3F)cc2)c1 [Compound 25a]
283

Field: s.f. (selectivity factor) = IC50(17β-HSD1)/IC50(17β-HSD2) (h17β-HSD2 (Homo sapiens, UniProt P37059)). Entry: COc1cccc(N(C)C(=O)c2ccc(-c3cccc(F)c3)cc2)c1 [Compound 13a]
8

Field: s.f. (selectivity factor) = IC50(17β-HSD1)/IC50(17β-HSD2) (h17β-HSD2 (Homo sapiens, UniProt P37059)). Entry: COc1ccc(-c2ccc(C(=O)N(C)c3cccc(OC)c3)cc2)cc1 [Compound 10a]
38

Field: s.f. (selectivity factor) = IC50(17β-HSD1)/IC50(17β-HSD2) (h17β-HSD2 (Homo sapiens, UniProt P37059)). Entry: COc1cccc(N(C)C(=O)c2ccc(-c3cccc(C)c3F)cc2)c1 [Compound 20a]
24

Field: s.f. (selectivity factor) = IC50(17β-HSD1)/IC50(17β-HSD2) (h17β-HSD2 (Homo sapiens, UniProt P37059)). Entry: COc1cccc(N(C)C(=O)c2ccc(-c3cccc(N(C)C)c3)cc2)c1 [Compound 15a]
8

Field: s.f. (selectivity factor) = IC50(17β-HSD1)/IC50(17β-HSD2) (h17β-HSD2 (Homo sapiens, UniProt P37059)). Entry: COc1cccc(N(C)C(=O)c2ccc(-c3ccc(OC)c(OC)c3)cc2)c1 [Compound 16a]
164

Field: s.f. (selectivity factor) = IC50(17β-HSD1)/IC50(17β-HSD2) (h17β-HSD2 (Homo sapiens, UniProt P37059)). Entry: COc1cccc(N(C)C(=O)c2ccc(-c3ccc(C)c(C)c3)cc2)c1 [Compound 17a]
44

Field: s.f. (selectivity factor) = IC50(17β-HSD1)/IC50(17β-HSD2) (h17β-HSD2 (Homo sapiens, UniProt P37059)). Entry: COc1cccc(-c2ccc(C(=O)N(C)c3cccc(OC)c3)cc2)c1 [Compound 7a]
20

Field: s.f. (selectivity factor) = IC50(17β-HSD1)/IC50(17β-HSD2) (h17β-HSD2 (Homo sapiens, UniProt P37059)). Entry: Cc1cccc(-c2ccc(C(=O)N(C)Cc3cccc(O)c3)cc2)c1F [Compound 25]
118

Field: s.f. (selectivity factor) = IC50(17β-HSD1)/IC50(17β-HSD2) (h17β-HSD2 (Homo sapiens, UniProt P37059)). Entry: Cc1cccc(N(C)C(=O)c2ccc(-c3ccc4c(c3)OCO4)cc2)c1 [Compound 23a]
20

Field: s.f. (selectivity factor) = IC50(17β-HSD1)/IC50(17β-HSD2) (h17β-HSD2 (Homo sapiens, UniProt P37059)). Entry: Cc1cccc(N(C)C(=O)c2ccc(-c3cccc(C)c3F)cc2)c1 [Compound 21a]
11

Field: s.f. (selectivity factor) = IC50(17β-HSD1)/IC50(17β-HSD2) (h17β-HSD2 (Homo sapiens, UniProt P37059)). Entry: COc1cccc(N(C)C(=O)c2ccc(-c3cccc(C)c3)cc2)c1 [Compound 6a]
25

Values compiled from paper PMC4521925.
